Hey, just so you know, these numbers are from patent US5869489A.

Target: human NK1R (Homo sapiens, UniProt P25103)
Construct: expressed in transfected cells
Sequence (P25103 whole entry): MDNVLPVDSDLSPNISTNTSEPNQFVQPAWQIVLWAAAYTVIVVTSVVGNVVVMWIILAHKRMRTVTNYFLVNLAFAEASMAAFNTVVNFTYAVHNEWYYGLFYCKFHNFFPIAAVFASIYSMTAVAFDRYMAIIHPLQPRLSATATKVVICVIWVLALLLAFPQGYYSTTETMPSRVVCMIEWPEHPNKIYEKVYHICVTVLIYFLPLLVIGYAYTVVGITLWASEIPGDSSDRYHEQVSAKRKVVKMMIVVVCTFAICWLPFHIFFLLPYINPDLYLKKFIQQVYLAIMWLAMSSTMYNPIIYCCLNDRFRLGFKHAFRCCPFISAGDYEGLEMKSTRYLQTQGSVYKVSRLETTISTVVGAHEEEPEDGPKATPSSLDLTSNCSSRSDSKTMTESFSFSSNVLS
Assay: Binding assay of human NK1R expressed in COS or CHO cells, displacement of 125I-substance P (Table 1, hNK1)
Details: human NK1 receptor, 125I-substance P ligand; read-out: hNK1 (IC50 nM)
Protocol: A. Receptor Expression in COS […] C. […] The bound radioactivity was separated from unbound radioactivity by GF/C filter (BRANDEL, Gaithersburg, Md.) which was pre-wetted with 0.1% polyethylenimine. The filter was washed with 3 ml of wash buffer (50 mM Tris pH 7.5, 5 mM MnCl2, 150 mM NaCl) three times and its radioactivity was determined by gamma counter. […]
recorded.endpoint: IC50 (nM)
Reply numerically in nM, unit not repeated.

Asked: Given the entry CN(Cc1ccccc1)C(=O)[C@H](Cc1c[nH]c2ccccc12)NC(=O)N1CCC2(C=Cc3ccccc32)CC1 [Example 1] , report its measured IC50.
Given back: 40

Asked: Now the compound CN(Cc1ccccc1)C(=O)[C@H](Cc1c[nH]c2ccccc12)NC(=O)N1CCC2(CC1)CN(S(C)(=O)=O)c1ccccc12 [Example 5]
Given back: 20

Asked: Now consider CN(Cc1ccccc1)C(=O)[C@H](Cc1c[nH]c2ccccc12)NC(=O)N1CCN(Cc2ccccc2)CC1 [Example 10] .
Given back: 60

Asked: And what about the compound CC(=O)NC1(c2ccccc2)CCN(C(=O)N[C@@H](Cc2c[nH]c3ccccc23)C(=O)N(C)Cc2ccccc2)CC1 [Example 9] ?
Given back: 60

Asked: Next compound up: O=C(NCc1ccccc1)[C@H](Cc1c[nH]c2ccccc12)NC(=O)N1CCC2(CCc3ccccc32)CC1 [Example 15]
Given back: 100
